System: RAW-Dual (murine macrophage reporter line)
Assay: IRF reporter (Lucia luciferase) activity fold change vs agonist alone; higher = enhanced IRF activity
Settings: modulator concentration 10 µM; agonist: 3'3'-cGAMP 10 ug/mL
METRIC: IRF reporter

// known answers, use as guide
COMPOUND	RECORDED RESULT
CCOC(=O)C1=C(CC)NC2=C(C(=O)CCC2)C1c1ccccc1I (stereo not given)	0.921
C#CCC(Cc1cnc2nc(N)nc(N)c2n1)c1ccc(C(=O)N[C@@H](CCC(=O)O)C(=O)O)cc1 (stereo not given in full)	0.774
CCN(CC)c1ccc(C=NN2C(=O)c3ccccc3C2=O)cc1	0.827
CCOC(=O)C1=C(C)N(c2ccc(OC)cc2)C(=O)C1=Cc1ccc(C(C)C)cc1	0.883

Okay, next one:
Asked: Item under review: CSc1ccc(C2Nc3ccccc3-c3nnc(SCc4ccc(C)cc4)nc3O2)cc1 (stereo not given) . Reported IRF reporter?
Given back: 0.877

----------
Tested on: RAW-Dual (murine macrophage reporter line)
Test: IRF reporter (Lucia luciferase) activity fold change vs agonist alone; higher = enhanced IRF activity
Conditions: modulator concentration 10 µM; agonist: LPS 0.1 ug/mL
We begin with a simple list: items and their reported IRF reporter.
Answer with a number only.

// known answers, use as guide
MOLECULE	IRF reporter
Cc1cccc(Sc2nccn3c(=O)n(CC(=O)N4CCN(c5ccccc5)CC4)nc23)c1	0.6
Cc1cc(=O)n(-c2ccccc2)n1C	1.27
O=C(Nc1ccc(F)cc1)c1ccco1	1.03
COc1ccc(CC(=O)N2CCCc3ccccc32)cc1OC	1.41
COC(=O)C1=CN(CC2CCCO2)C=C(C(=O)OC)C1c1ccsc1 (centres undefined)	1.41
CN(C)c1ccc(C=C(C#N)c2nc(-c3cc4ccccc4oc3=O)cs2)cc1	1.36

Asked: Item under review: `COc1ccc(CCC(=O)NCc2nc(N(C)C)nc(N3CCCCC3)n2)cc1` . Reported IRF reporter?
Given back: 1.01

Asked: Item under review: `O=C(O)CN1C(=O)c2cccc3cccc(c23)C1=O` . Reported IRF reporter?
Given back: 0.911

Asked: Item under review: O=C(CC1Sc2ccccc2NC1=O)Nc1ccccc1Cl (centres undefined) . Reported IRF reporter?
Given back: 1.04

Asked: Item under review: `C=CCN1C(=O)C(C)(C)COc2cc(NC(=O)c3ccc(Br)o3)ccc21` . Reported IRF reporter?
Given back: 0.933

Asked: Item under review: `Cc1ccc(S(=O)(=O)Nc2ccccc2-c2nc3ccccc3o2)cc1` . Reported IRF reporter?
Given back: 1.09

Asked: Item under review: `CC1(C)CC(NC(=O)c2cccnc2-c2nc3ccccc3s2)CC(C)(C)N1` . Reported IRF reporter?
Given back: 1.06

Asked: Item under review: CN1CCN2c3ccccc3Cc3ccccc3C2C1.Cl (centres undefined) . Reported IRF reporter?
Given back: 1.32

----------
Tested on: RAW-Dual (murine macrophage reporter line)
Experiment: IRF reporter (Lucia luciferase) activity fold change vs agonist alone; higher = enhanced IRF activity
Settings: modulator concentration 10 µM; agonist: LPS 0.1 ug/mL
We begin with a simple list: items and their reported IRF reporter.
Answer with a number only.

// known answers, use as guide
COMPOUND	METRIC	RECORDED RESULT
O=C(NCCN1CCN(c2ccc(Cl)cc2)CC1)c1ccncc1	IRF reporter	1.02
Fc1ccc(Nc2nc(NN=Cc3ccc(Cl)cc3)nc(N3CCCCC3)n2)cc1	IRF reporter	1.14
Cc1ccc(S(=O)(=O)Nc2cc(-c3c(O)ccc4ccccc34)c(O)c3ccccc23)cc1	IRF reporter	0.808

Asked: Item under review: `COc1ccccc1-c1nnc(NC(=O)c2cc(C)nn2C)o1` . Reported IRF reporter?
Given back: 0.965

Asked: Item under review: CC(C)(C)NCC(O)COc1cccc2c1CC(O)C(O)C2 (stereo unspecified) . Reported IRF reporter?
Given back: 1.04

Asked: Item under review: `O=C(NC(=S)Nc1ccc2[nH]c(=O)[nH]c2c1)c1ccc(Cl)cc1` . Reported IRF reporter?
Given back: 1.03

----------
We begin with a simple list: items and their reported NF-kB reporter.
System: RAW-Dual (murine macrophage reporter line)
Test: NF-kB reporter (SEAP) activity fold change vs agonist alone; higher = enhanced NF-kB activity
Conditions: modulator concentration 10 µM; agonist: MPLA […]
Answer with a number only.

// known answers, use as guide
MOLECULE	RECORDED RESULT
Cc1ccc(NC(=O)C(C#N)=Cc2ccc(-c3cccc([N+](=O)[O-])c3)o2)cc1	0.904
C=C(Br)Cn1c(COc2ccccc2)nc2ccccc21	1.05
OCC(S)CS (stereo unspecified)	0.988

Asked: Item under review: `Cc1ccc(C23CC4CC(CC(CN)(C4)C2)C3)cc1C.Cl` . Reported NF-kB reporter?
Given back: 1.08

Asked: Item under review: `Cc1cn([C@@H]2C[C@@H](O)[C@H](CO)O2)c(=O)[nH]c1=O` . Reported NF-kB reporter?
Given back: 1.01

Asked: Item under review: `Cc1ccc(S(=O)(=O)N2CCC2)cc1` . Reported NF-kB reporter?
Given back: 1.07

----------
Test system: RAW-Dual (murine macrophage reporter line)
Assay: NF-kB reporter (SEAP) activity fold change vs agonist alone; higher = enhanced NF-kB activity
Details: modulator concentration 10 µM; agonist: MPLA […]
Give YES when the value for NF-kB reporter is at least 1. Give NO when it is less.

Worked set:
COMPOUND	CAT
COc1ccc(S(=O)(=O)N(CC(=O)Nc2ccccc2Br)c2ccc(C)cc2)cc1OC	NO
C=C1C(=O)OC2C1CCC(C)=CCCC1(C)OC21 (stereo not given)	NO

Asked: Item `CN(C)C/C=C/C(=O)Nc1cc2c(Nc3ccc(F)c(Cl)c3)ncnc2cc1O[C@H]1CCOC1` with NF-kB reporter of 1 or above?
Given back: NO

Asked: Item `Cc1ccn2c(-c3csc(NCc4ccccc4)n3)c(C)nc2c1` with NF-kB reporter of 1 or above?
Given back: YES

Asked: Item `CN(CC(=O)O)c1nc2ccc(OC(F)(F)F)cc2s1` with NF-kB reporter of 1 or above?
Given back: NO

Asked: Item `CC(=O)N(C1=C(Nc2ccccc2)C(=O)c2ccccc2C1=O)c1ccccc1` with NF-kB reporter of 1 or above?
Given back: YES

Asked: Item CCCCCCOc1ccc(N2C(=O)CC(N3CCN(Cc4ccc5c(c4)OCO5)CC3)C2=O)cc1 (stereo not given) with NF-kB reporter of 1 or above?
Given back: NO

Asked: Item O=C(NCC(O)Cc1ccccc1)Nc1ccc(F)cc1 (stereo not given) with NF-kB reporter of 1 or above?
Given back: YES

----------
System: RAW-Dual (murine macrophage reporter line)
Experiment: IRF reporter (Lucia luciferase) activity fold change vs agonist alone; higher = enhanced IRF activity
Settings: modulator concentration 10 µM; agonist: LPS 0.1 ug/mL
We begin with a simple list: items and their reported IRF reporter.
Answer with a number only.

// known answers, use as guide
COMPOUND	IRF reporter
COc1cc(C(=O)O)ccc1NC(=O)[C@@H]1N[C@@H](CC(C)(C)C)[C@](C#N)(c2ccc(Cl)cc2F)[C@H]1c1cccc(Cl)c1F	1.02
O=C(O)CSCC(=O)NC1CCSC1=O (stereo not given)	1.36
OCCN(CCO)CC(O)Cn1c2ccc(Br)cc2c2cc(Br)ccc21 (stereo not given)	1.42
Cc1c(N=Cc2cc([N+](=O)[O-])ccc2O)c(=O)n(-c2ccccc2)n1C	1.34
CC1CCc2c(oc3ccc(NS(=O)(=O)c4ccc(F)cc4)cc23)C1 (stereo not given)	0.643

Asked: Item under review: `CN(C)CC#CCNC(=O)Nc1ccc(C(F)(F)F)cc1` . Reported IRF reporter?
Given back: 1.06

Asked: Item under review: `CCOC(=O)C1=C(C)N(CC(C)C)C(=O)C1=Cc1cccc(Br)c1` . Reported IRF reporter?
Given back: 0.963

----------
Tested on: RAW-Dual (murine macrophage reporter line)
Test: IRF reporter (Lucia luciferase) activity fold change vs agonist alone; higher = enhanced IRF activity
Details: modulator concentration 10 µM; agonist: LPS 0.1 ug/mL
Give true when the value for IRF reporter is at least 1. Give false when it is less.

Worked set:
MOLECULE	CAT
Cc1cccc(OCC(=O)Nc2cccc([N+](=O)[O-])c2)c1C	true
COc1cc2nc(N3CCN(C(=O)C4COc5ccccc5O4)CC3)nc(N)c2cc1OC (stereo unspecified)	true
O=C(NC1CCCCC1)c1cccc(C(F)(F)F)c1	true
O=c1c(-c2ccc(O)cc2)coc2cc(O)cc(O)c12	false

As a next step, examine the molecule that follows.
Asked: Item `Cc1cn([C@@H]2C[C@@H](O)[C@H](CO)O2)c(=O)[nH]c1=O` with IRF reporter of 1 or above?
Given back: false

----------
We begin with a simple list: items and their reported IRF reporter.
System: RAW-Dual (murine macrophage reporter line)
Experiment: IRF reporter (Lucia luciferase) activity fold change vs agonist alone; higher = enhanced IRF activity
Conditions: modulator concentration 10 µM; agonist: MPLA […]
Answer with a number only.

// known answers, use as guide
COMPOUND	IRF reporter
NCC1OC(OC2C(CO)OC(OC3C(O)C(N)CC(N)C3OC3OC(CN)C(O)C(O)C3N)C2O)C(N)C(O)C1O.O=S(=O)(O)O (stereo not given)	1.29
CC(C)Oc1ccc(Br)cc1C=C(C#N)c1nn(CCO)c(N)c1C#N	1.03
C1=CC2CC1CC2CN1CCC(N2CCCCC2)CC1 (stereo not given)	1.79

Asked: Item under review: CCN1CCCC1CNC(=O)c1cc(S(N)(=O)=O)ccc1OC (stereo not given) . Reported IRF reporter?
Given back: 0.865

Asked: Item under review: `CN(C)Cc1ccc(S(=O)(=O)n2ccc(/C=C/C(=O)NO)c2)cc1` . Reported IRF reporter?
Given back: 1.6
